Where these numbers come from: patent US20140056903A1

Molecular target: T1, human GFRα3 expressed with a C-terminal myc-myc-hexahistidine tag (human, UniProt O60609 32-374, biotinylated (sites not given) in ELISA format 2 and in the Octet cross-competition; not in SPR)
T1 construct: also called hGFRα3-mmh; hGFRα3-mmH
T1 sequence (O60609 other isoform, or with tags, fused parts or gaps limits assumed): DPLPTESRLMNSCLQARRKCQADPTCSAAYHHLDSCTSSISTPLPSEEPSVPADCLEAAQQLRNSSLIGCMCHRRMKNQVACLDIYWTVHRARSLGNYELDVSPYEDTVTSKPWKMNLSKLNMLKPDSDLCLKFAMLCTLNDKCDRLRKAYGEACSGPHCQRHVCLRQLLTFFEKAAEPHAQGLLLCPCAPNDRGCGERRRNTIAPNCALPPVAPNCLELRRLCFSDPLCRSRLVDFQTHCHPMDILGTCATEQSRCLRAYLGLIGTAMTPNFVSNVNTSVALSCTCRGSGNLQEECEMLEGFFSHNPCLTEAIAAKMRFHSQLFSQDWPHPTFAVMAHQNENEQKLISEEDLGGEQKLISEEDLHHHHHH
Assay: Octet cross-competition; biotin-hGFRα3-mmH pre-saturated with first antibody H4H2350P

{"BINDER": "H4H2292S (antibody, human IgG4, V domains shown, human IgG4 Fc (H4H)) VH: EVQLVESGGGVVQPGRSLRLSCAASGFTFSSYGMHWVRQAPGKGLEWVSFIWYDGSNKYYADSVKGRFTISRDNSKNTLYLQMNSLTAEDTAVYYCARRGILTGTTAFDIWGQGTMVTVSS VL: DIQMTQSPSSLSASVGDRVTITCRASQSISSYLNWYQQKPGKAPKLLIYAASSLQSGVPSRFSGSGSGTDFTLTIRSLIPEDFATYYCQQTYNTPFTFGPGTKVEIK", "binding response of second antibody (nm)": 1.74}
